test system: p-IKKa levels in L363 (NIK translocated multiple myeloma) cells; test: Assay 2: Effect of compounds on p-IKKa levels in L363 (NIK translocated multiple myeloma) cells; type: cell-based; conditions: Homo sapiens, L-363, 6 h, read-out: Assay 2 IC50 (nM), p-IKKa (Ser 176/180) in BAFF stimulated L363 cells with MG132, 6 h; average if tested more than once

[
  {
    "COMPOUND": "CN1CC[C@@](O)(c2cc(-c3cccc(-c4ccnc(Nc5cn(C)nn5)n4)n3)no2)C1=O",
    "IC50": "50 to 500 nM"
  },
  {
    "COMPOUND": "Cc1cnc(Nc2cnn(C)c2)nc1-c1cccc(-c2cc([C@]3(O)CCN(C)C3=O)on2)n1",
    "IC50": "> 500 nM"
  },
  {
    "COMPOUND": "C[C@H](Nc1nccc(-c2cccc(-c3cc([C@]4(O)CCN(C)C4=O)on3)n2)n1)c1ccn2ccnc2c1 (single isomer, unassigned)",
    "IC50": "50 to 500 nM"
  },
  {
    "COMPOUND": "Cc1cc(Nc2nccc(-c3cccc(-n4cc([C@@]5(O)C(=O)N(C)CC5(F)F)nn4)n3)n2)ccn1",
    "IC50": "< 50 nM"
  },
  {
    "COMPOUND": "CN1CC[C@@](O)(c2cc(-c3cccc(-c4ccnc(Nc5ccn(C)n5)n4)c3)no2)C1=O",
    "IC50": "50 to 500 nM"
  },
  {
    "COMPOUND": "CN1CC[C@@](O)(c2cc(-c3cccc(-c4nc(Nc5cnn(C)c5)ncc4F)c3)no2)C1=O",
    "IC50": "> 500 nM"
  },
  {
    "COMPOUND": "CN1CC[C@@](O)(c2cc(-c3cccc(-c4ccnc(NC5(c6cnn(C)c6)CC5)n4)n3)no2)C1=O",
    "IC50": "> 500 nM"
  },
  {
    "COMPOUND": "C[C@@H](Nc1nccc(-c2cccc(-c3cc([C@]4(O)CCN(C)C4=O)on3)n2)n1)C(=O)N1CC(F)(F)C1",
    "IC50": "> 500 nM"
  },
  {
    "COMPOUND": "CN1CC[C@@](O)(c2cc(-c3cccc(-c4ccnc(N[C@H]5CC[C@@H](O)C5)n4)c3)no2)C1=O",
    "IC50": "> 500 nM"
  },
  {
    "COMPOUND": "[2H]c1cc(-c2cccc(-n3cc([C@]4(O)CCN(C)C4=O)nn3)n2)nc(Nc2ccn(C)n2)n1",
    "IC50": "< 50 nM"
  },
  {
    "COMPOUND": "CN1CC[C@@](O)(c2cc(-c3cccc(-c4cc(Cl)nc(Nc5ccn(C)n5)n4)n3)no2)C1=O",
    "IC50": "> 500 nM"
  },
  {
    "COMPOUND": "COc1cn([C@H]2C[C@H](O)C2)nc1Nc1nccc(-c2cccc(-c3cc([C@]4(O)CCN(C)C4=O)on3)n2)n1",
    "IC50": "< 50 nM"
  },
  {
    "COMPOUND": "CN1CC[C@@](O)(c2cc(-c3cccc(-c4ccnc(NC5CC(F)(F)C5)n4)n3)no2)C1=O",
    "IC50": "50 to 500 nM"
  },
  {
    "COMPOUND": "CCn1ccc(Nc2nccc(-c3cccc(-c4cc([C@]5(O)CCN(C)C5=O)no4)n3)n2)n1",
    "IC50": "< 50 nM"
  }
]
